# Kd per record follows
- assayedSystem: T1, MBP-fused PDZ domain 1 of PARD3B (human, UniProt Q8TEW8 201-289)
- T1 sequence (looked up): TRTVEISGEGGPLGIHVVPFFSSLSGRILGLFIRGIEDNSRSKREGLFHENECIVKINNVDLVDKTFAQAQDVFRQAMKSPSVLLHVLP
- measurementDescription: SPR
Where no end group is shown, it is not given here. [ ]: non-standard residue; d: D form. The star is where a group is joined. Biotin = O=C1N[C@H]2[C@H](CS[C@H]2CCCCC(=O)*)N1; TTDS = NCCCOCCOCCOCCCNC(=O)CCC(=O)*; pS = N[C@@H](COP(=O)(O)O)C(=O)O
Output spec: scalar in µM, unitless text.

1) {Biotin-TTDS}-RRVRKLPSTTL (peptide, UniProt Q15418 725-735, looked up) [biotinylated RSK1 725-735 peptide, unphosphorylated]    4

Next binder, please.
Quick one: Kd of {Biotin-TTDS}-RRVRKLP[pS]TTL (peptide, UniProt Q15418 725-735, looked up) [biotinylated RSK1 725-735 peptide, phosphorylated at Ser732 (position -3)] ?
6.1
